Cited source: the supplement of paper PMC10266784

B1: library; numbered along this chain (parent)
chain: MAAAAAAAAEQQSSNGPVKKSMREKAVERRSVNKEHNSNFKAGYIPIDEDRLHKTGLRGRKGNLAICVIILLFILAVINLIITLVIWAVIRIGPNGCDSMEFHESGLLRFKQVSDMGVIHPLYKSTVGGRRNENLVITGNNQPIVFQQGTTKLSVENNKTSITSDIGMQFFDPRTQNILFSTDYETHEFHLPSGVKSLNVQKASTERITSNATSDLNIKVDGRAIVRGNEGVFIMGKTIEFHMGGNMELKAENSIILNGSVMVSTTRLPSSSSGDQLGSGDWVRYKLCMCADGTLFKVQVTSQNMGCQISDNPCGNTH

Variants of: B1
protocol.description: SGCB cell-surface expression functional score (HA stain, bin4 vs bin1, normalised to synonymous) (log10 ratio); higher = more cell-surface SGCB (functional)
Please use Fulfilled whenever SGCB cell-surface expression functional score (log10) is not below -0.1, and Not fulfilled whenever it is.

The examples below pair each entry with its known result.
[[record]]
variant = "S38C"
qualitative_label = "Not fulfilled"

[[record]]
variant = "K20E"
qualitative_label = "Fulfilled"

[[record]]
variant = "V27S"
qualitative_label = "Fulfilled"

[[record]]
variant = "A251M"
qualitative_label = "Fulfilled"

[[record]]
variant = "E28A"
qualitative_label = "Not fulfilled"


Kindly review the next variant as well.
Request: Determine whether this variant has SGCB cell-surface expression functional score (log10) no lower than -0.1: "L84M"
Response: Fulfilled
